Entry source: patent US20250257075A1

IC50 listing for selected molecules.
target.of.assay: KRAS G12V binding to BRAF (Homo sapiens, UniProt P01116+P62937, G12V)
Sequence (P01116 1-188 isoform P01116-2 G12V): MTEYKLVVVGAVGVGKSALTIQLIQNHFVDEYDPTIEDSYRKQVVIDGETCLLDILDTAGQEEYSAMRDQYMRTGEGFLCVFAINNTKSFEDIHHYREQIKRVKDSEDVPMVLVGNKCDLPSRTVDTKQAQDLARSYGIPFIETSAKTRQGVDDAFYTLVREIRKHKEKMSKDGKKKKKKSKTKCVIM
Sequence (P62937 whole entry): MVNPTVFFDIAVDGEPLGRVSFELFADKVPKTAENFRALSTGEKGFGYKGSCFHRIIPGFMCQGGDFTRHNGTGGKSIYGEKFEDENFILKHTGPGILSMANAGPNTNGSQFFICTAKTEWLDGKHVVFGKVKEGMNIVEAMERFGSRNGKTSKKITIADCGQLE
assay.details: KRAS-BRAF with CYPA (500 nM) interaction assay (TR-FRET), G12V
Format: biochemical
test.parameters: 3 hours
Lab book: enter the figure in µM, no units written.

Here are 3 molecules together with their reported answers.
CO[C@@H](C)c1ncc(N2CCN(C)CC2)cc1-c1c2c3c(F)c(ccc3n1CC(F)(F)F)-c1csc(n1)C[C@H](NC(=O)[C@H](C(C)C)N(C)C(=O)[C@H]1C[C@@H](C#CC(F)(F)F)C1)C(=O)N1CCC[C@H](N1)C(=O)OCC(C)(C)C2 (atropisomer, axis not shown; (M)) ... 0.484
CO[C@@H](C)c1ncc(N2CCN(C)CC2)cc1-c1c2c3cc(c(F)cc3n1CC(F)(F)F)-c1csc(n1)C[C@H](NC(=O)[C@H](C(C)C)N(C)C(=O)[C@H]1CC[C@H](C#CC(F)(F)F)CC1)C(=O)N1CCC[C@H](N1)C(=O)OCC(C)(C)C2 (atropisomer, axis not shown; (M)) ... 1.98
CO[C@@H](C)c1ncc(N2CCN(C)CC2)cc1-c1c2c3cc(c(F)cc3n1CC(F)(F)F)-c1csc(n1)C[C@H](NC(=O)[C@H](C(C)C)N(C)C(=O)[C@H]1C[C@@H](C#Cc3ncccn3)C1)C(=O)N1CCC[C@H](N1)C(=O)OCC(C)(C)C2 (relative stereo) ... 1.1

Input: Give IC50 for the following molecule: CO[C@@H](C)c1ncc(N2CCN(C)CC2)cc1-c1c2c3cc(c(F)cc3n1CC(F)(F)F)-c1csc(n1)C[C@H](NC(=O)[C@H](C(C)C)N(C)C(=O)N1CC(C#CC(F)(F)F)C1)C(=O)N1CCC[C@H](N1)C(=O)OCC(C)(C)C2 (atropisomer, axis not shown; (M))
Output: 6.74

Input: Give IC50 for the following molecule: CO[C@@H](C)c1ncc(N2CCN(C)CC2)cc1-c1c2c3cc(c(F)cc3n1CC(F)(F)F)-c1csc(n1)C[C@H](NC(=O)[C@H](C(C)C)N(C)C(=O)[C@H]1CC[C@@H](C#CC(F)(F)F)CC1)C(=O)N1CCC[C@H](N1)C(=O)OCC(C)(C)C2 (atropisomer, axis not shown; (M))
Output: 1.48

====

target.of.assay: KRAS G12C-BRAF complex (Homo sapiens, UniProt P01116+P62937, G12C)
Construct: expressed in transfected cells
Sequence (P01116 1-188 isoform P01116-2 G12C, one chain of several): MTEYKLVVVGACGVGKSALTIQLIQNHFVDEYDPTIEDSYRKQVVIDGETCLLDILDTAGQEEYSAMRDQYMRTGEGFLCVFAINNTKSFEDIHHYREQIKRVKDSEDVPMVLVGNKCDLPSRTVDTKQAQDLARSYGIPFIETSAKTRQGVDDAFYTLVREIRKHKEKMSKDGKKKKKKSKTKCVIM
assay.details: KRAS G12C-BRAF NanoBit assay in HEK293 cells
Assay type: cell-based
test.parameters: HEK293 stable cell pool, 3 hours of incubation
IC50 listing for selected compounds.
Lab book: enter the figure in µM, no units written.

CO[C@@H](C)c1ncc(N2CCN(C)CC2)cc1-c1c2c3cc(c(F)cc3n1CC(F)(F)F)-c1csc(n1)C[C@H](NC(=O)[C@H](C(C)C)N(C)C(=O)[C@H]1CC[C@H](C#CC(F)(F)F)CC1)C(=O)N1CCC[C@H](N1)C(=O)OCC(C)(C)C2 (atropisomer, axis not shown; (M)) [Example 9] ... 0.418
CO[C@@H](C)c1ncc(N2CCN(C)CC2)cc1-c1c2c3cc(c(F)cc3n1CC(F)(F)F)-c1csc(n1)C[C@H](NC(=O)[C@H](C(C)C)N(C)C(=O)[C@H]1C[C@@H](C#CC(F)(F)F)C1)C(=O)N1CCC[C@H](N1)C(=O)OCC(C)(C)C2 (atropisomer, axis not shown; (M)) [Example 3] ... 0.036
CCn1c(-c2cc(N3CCN(CC(F)(F)F)CC3)cnc2[C@H](C)OC)c2c3cc(c(F)cc31)-c1csc(n1)C[C@H](NC(=O)[C@H](C(C)C)N(C)C(=O)[C@H]1C[C@@H](C#CC(F)(F)F)C1)C(=O)N1CCC[C@H](N1)C(=O)OCC(C)(C)C2 (atropisomer, axis not shown; (M)) [Example 8] ... 0.054

From here, focus on the item given below.
Input: Give IC50 for the following compound: CO[C@@H](C)c1ncc(N2CCN(C)CC2)cc1-c1c2c3cc(c(F)cc3n1CC(F)(F)F)-c1csc(n1)C[C@H](NC(=O)[C@H](C(C)C)N(C)C(=O)[C@H]1C[C@H](C#CC(F)(F)F)C1)C(=O)N1CCC[C@H](N1)C(=O)OCC(C)(C)C2 (atropisomer, axis not shown; (M)) [Example 1]
Output: 0.081

====

Tested on: AGS cells (KRAS G12D)
assay.details: Cell viability assay, G12D
Format: cell-based, human
test.parameters: Homo sapiens, 72 hrs, Cell Counting Kit-8
Procedure: The purpose of this cellular assay was to determine the effects of test compounds on the proliferation of human cancer cell lines NCI-H358 (ATCC-CRL5807) cells, AGS (ATCC-CRL-1739) cells, SW620 (ATCC-CCL-227) over a 3-day treatment period by quantifying the amount of NADPH present at endpoint using Cell Counting Kit-8. Cells were seeded at 5,000 cells/well (NCI-H358), 2,000 cells/well (AGS) 2,000 cells/well (SW620) in 96-well assay plates (Corning-3699) and incubated overnight. […]
measured.metric: IC50

Here are 2 molecules together with their reported answers.
CCn1c(-c2cc(N3CCN(C)CC3)cnc2[C@H](C)OC)c2c3cc(c(F)cc31)-c1csc(n1)C[C@H](NC(=O)[C@H](C(C)C)N(C)C(=O)N1CC(C#CC(F)(F)F)C1)C(=O)N1CCC[C@H](N1)C(=O)OCC(C)(C)C2 (atropisomer, axis not shown; (M)) [Example 14] ... > 10 µM
CCn1c(-c2cc(N3CCN(CC(F)(F)F)CC3)cnc2[C@H](C)OC)c2c3cc(c(F)cc31)-c1csc(n1)C[C@H](NC(=O)[C@H](C(C)C)N(C)C(=O)[C@H]1C[C@@H](C#CC(F)(F)F)C1)C(=O)N1CCC[C@H](N1)C(=O)OCC(C)(C)C2 (atropisomer, axis not shown; (M)) [Example 8] ... > 5 µM

Input: Answer with IC50 of CO[C@@H](C)c1ncc(N2CCN(CC(F)(F)F)CC2)cc1-c1c2c3cc(c(F)cc3n1CC(F)(F)F)-c1csc(n1)C[C@H](NC(=O)[C@H](C(C)C)N(C)C(=O)N1CC(C#CC(F)(F)F)C1)C(=O)N1CCC[C@H](N1)C(=O)OCC(C)(C)C2 (atropisomer, axis not shown; (M)) [Example 18] measured for AGS cells (KRAS G12D).
Output: > 10 µM

====

target.of.assay: KRAS G12D binding to BRAF (Homo sapiens, UniProt P01116+P62937, G12D)
Sequence (P01116 1-188 isoform P01116-2 G12D, one chain of several): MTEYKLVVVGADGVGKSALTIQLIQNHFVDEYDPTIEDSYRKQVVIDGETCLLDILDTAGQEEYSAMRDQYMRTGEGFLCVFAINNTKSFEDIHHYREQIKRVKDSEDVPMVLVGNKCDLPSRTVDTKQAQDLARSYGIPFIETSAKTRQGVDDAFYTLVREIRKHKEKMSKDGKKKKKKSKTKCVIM
assay.details: KRAS-BRAF with CYPA (500 nM) interaction assay (TR-FRET), G12D
Assay type: biochemical
test.parameters: 3 hours
measured.metric: IC50

Here are 2 compounds together with their reported answers.
CO[C@@H](C)c1ncc(N2CCN(C)CC2)cc1-c1c2c3cc(c(F)cc3n1CC(F)(F)F)-c1csc(n1)C[C@H](NC(=O)[C@H](C(C)C)N(C)C(=O)N1CC(C#CC(F)(F)F)C1)C(=O)N1CCC[C@H](N1)C(=O)OCC(C)(C)C2 (atropisomer, axis not shown; (M)) ... > 10 µM
CCn1c(-c2cc(N3CCN(C)CC3)cnc2[C@H](C)OC)c2c3cc(c(F)cc31)-c1csc(n1)C[C@H](NC(=O)[C@H](C(C)C)N(C)C(=O)[C@H]1C[C@@H](C#CC(F)(F)F)C1)C(=O)N1CCC[C@H](N1)C(=O)OCC(C)(C)C2 (atropisomer, axis not shown; (M)) ... > 10 µM

From here, focus on the item given below.
Input: Answer with IC50 of CC#CC(=O)N1CC[C@H](C(=O)N(C)[C@H](C(=O)N[C@H]2Cc3nc(cs3)-c3ccc4c(c3)c(c(-c3cccnc3[C@H](C)OC)n4CC)CC(C)(C)COC(=O)[C@@H]3CCCN(N3)C2=O)C(C)C)C1 [Example A168, reference compound] measured for KRAS G12D binding to BRAF (Homo sapiens, UniProt P01116+P62937, G12D).
Output: > 10 µM
